Cited source: patent US12264148B2

test: Approximate solubility of ivosidenib freebase in 20 solvent systems at RT; assay type: physicochemical; conditions: organic solvent or mixture, thermodynamic from solid, Heptane, RT
test-readout: solubility

Exercise: Could you please provide reported solubility for N#Cc1ccnc(N2C(=O)CC[C@H]2C(=O)N(c2cncc(F)c2)[C@H](C(=O)NC2CC(F)(F)C2)c2ccccc2Cl)c1 [ivosidenib] ? Thanks!
Solution: < 950 µg/mL

----------
assay: Approximate solubility of ivosidenib freebase in 20 solvent systems at RT; type: physicochemical; conditions: organic solvent or mixture, thermodynamic from solid, Acetone, RT
test-readout: solubility

Exercise: Could you please provide reported solubility for N#Cc1ccnc(N2C(=O)CC[C@H]2C(=O)N(c2cncc(F)c2)[C@H](C(=O)NC2CC(F)(F)C2)c2ccccc2Cl)c1 ? Thanks!
Solution: > 36.4 mg/mL
